- TESTED TARGET: JAK3 (Homo sapiens, UniProt P52333)
- Sequence (P52333 1-1124): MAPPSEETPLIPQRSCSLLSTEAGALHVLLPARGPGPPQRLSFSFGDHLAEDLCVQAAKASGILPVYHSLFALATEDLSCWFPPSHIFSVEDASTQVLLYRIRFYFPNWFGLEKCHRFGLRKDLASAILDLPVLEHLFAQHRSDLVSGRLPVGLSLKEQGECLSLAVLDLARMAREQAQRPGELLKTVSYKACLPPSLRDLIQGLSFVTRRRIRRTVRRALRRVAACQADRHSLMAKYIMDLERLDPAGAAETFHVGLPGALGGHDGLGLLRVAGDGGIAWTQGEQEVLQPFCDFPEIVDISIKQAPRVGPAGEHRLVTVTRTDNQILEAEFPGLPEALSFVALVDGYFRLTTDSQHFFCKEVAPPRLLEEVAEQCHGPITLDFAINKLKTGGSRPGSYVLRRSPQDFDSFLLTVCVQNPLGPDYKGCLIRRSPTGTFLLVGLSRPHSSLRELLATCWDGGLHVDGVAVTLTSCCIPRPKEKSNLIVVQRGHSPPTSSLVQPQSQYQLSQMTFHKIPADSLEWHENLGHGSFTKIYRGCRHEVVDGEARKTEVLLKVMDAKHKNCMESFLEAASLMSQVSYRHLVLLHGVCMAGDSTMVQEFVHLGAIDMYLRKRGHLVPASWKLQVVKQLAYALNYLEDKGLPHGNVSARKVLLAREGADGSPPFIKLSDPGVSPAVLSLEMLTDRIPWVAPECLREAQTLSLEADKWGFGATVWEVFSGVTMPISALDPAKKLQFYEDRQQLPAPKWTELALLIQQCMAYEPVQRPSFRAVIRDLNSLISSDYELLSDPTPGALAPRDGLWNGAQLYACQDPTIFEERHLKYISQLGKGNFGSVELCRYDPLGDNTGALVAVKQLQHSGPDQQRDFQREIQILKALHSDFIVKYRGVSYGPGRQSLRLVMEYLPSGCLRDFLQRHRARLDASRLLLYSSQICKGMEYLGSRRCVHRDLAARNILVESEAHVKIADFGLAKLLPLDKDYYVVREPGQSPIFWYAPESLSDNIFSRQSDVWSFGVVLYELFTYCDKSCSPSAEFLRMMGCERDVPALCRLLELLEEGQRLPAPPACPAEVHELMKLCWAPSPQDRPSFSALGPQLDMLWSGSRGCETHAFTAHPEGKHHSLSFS
- PROCEDURE TEXT: Biochemical JAK3 kinase assay (LanthaScreen)
- Design: GST; purchased Life Technologies
- RUN CONDITIONS: read-out: JAK 3 (pKi) (converted)
PROPERTY MEASURED: Ki

CN(C)C/C=C/C(=O)N1CCC(Oc2cc(-c3ccc(O)cc3)cc3[nH]ncc23)CC1 | < 0.1 nM

Ki reported for this compound "C=CC(=O)N1CCC(Oc2nc(-c3ccc(O)cc3)cc3[nH]ncc23)CC1" : 0.1 to 1 nM

Ki reported for this compound "CN(C)C/C=C/C(=O)N1CCC(Cc2cc(-c3ccc(O)cc3)cc3[nH]ncc23)CC1" : 0.1 to 1 nM

Ki reported for this compound "CN(C)C/C=C/C(=O)N1CC(F)(COc2nc(-c3ccc(O)cc3)nc3[nH]ncc23)C1" : 0.1 to 1 nM

Ki reported for this compound "CN(C)C/C=C/C(=O)N1CC(C#N)(COc2cc(-c3ccc(O)c(F)c3)cc3[nH]ncc23)C1" : < 0.1 nM

Ki reported for this compound "C=CC(=O)N1CC[C@H](Oc2cc(-c3ccc(O)cc3F)cc3[nH]ncc23)C1" : 0.1 to 1 nM

Ki reported for this compound "C=CC(=O)N1CCC(Sc2cc(-c3ccc(O)cc3)cc3[nH]ncc23)CC1" : 0.1 to 1 nM

Ki reported for this compound "C=CC(=O)N1CC(COc2nc(-c3ccc(O)cc3)nc3[nH]ncc23)(OC)C1" : < 0.1 nM

Ki reported for this compound "C=CC(=O)N1CC[C@H](COc2cc(-c3ccc(O)cc3)cc3[nH]ncc23)C1" : 0.1 to 1 nM

Ki reported for this compound "C=CC(=O)N1CC(F)(COc2cc(-c3ccc(O)cc3)cc3[nH]ncc23)C1" : < 0.1 nM

Ki reported for this compound "CN(C)C/C=C/C(=O)N1CC[C@H](Oc2nc(-c3ccc(O)cc3)cc3[nH]ncc23)C1" : 0.1 to 1 nM

Ki reported for this compound C=CC(=O)N1CCSCC1C(=O)Nc1cc(-c2ccc(O)cc2)cc2[nH]ncc12 (stereo not shown) : 0.1 to 1 nM

Ki reported for this compound COC1CCCN(C/C=C/C(=O)N2CC(COc3cc(-c4ccc(O)cc4)cc4[nH]ncc34)C2)C1 (stereo not shown) : < 0.1 nM

Ki reported for this compound "CSC1CCN(C/C=C/C(=O)N2CC(COc3cc(-c4ccc(O)cc4)cc4[nH]ncc34)C2)CC1" : 0.1 to 1 nM

Ki reported for this compound "C=CC(=O)N1CC[C@H](Oc2nc(-c3ccc(O)c(F)c3)nc3[nH]nc(C)c23)C1" : < 0.1 nM

Ki reported for this compound "C=CC(=O)N1CCC(C(=O)Nc2cc(-c3ccc(O)cc3)cc3[nH]ncc23)CC1" : < 0.1 nM

Ki reported for this compound "CCSCCNC/C=C/C(=O)N1CC(COc2cc(-c3ccc(O)cc3)cc3[nH]ncc23)C1" : < 0.1 nM

Ki reported for this compound "C=CC(=O)N1CC[C@H](Oc2cc(-c3ccc(O)cc3)cc3[nH]nc(C)c23)C1" : 0.1 to 1 nM

Ki reported for this compound "CN(C)C/C=C/C(=O)N1CC(C(C)(C)Oc2cc(-c3ccc(O)c(Cl)c3)cc3[nH]ncc23)C1" : 0.1 to 1 nM

Ki reported for this compound "C=CC(=O)N1CC[C@H](Nc2cc(-c3ccc(O)cc3)cc3[nH]ncc23)C[C@@H]1C" : 0.1 to 1 nM
